Tested on: c-Src;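 also: 11-residue human phosphosite peptides and single-mutation variants displayed on the E. coli surface, counted by deep sequencing, each peptide's frequency after selection divided by its frequency in the unselected input library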;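 also: frequency after pTyr selection over input frequency; kinase dosed for 20-30% of maximal phosphorylation in three min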
Assay: phosphorylation enrichment, bacterial display (enrichment ratio); higher = better substrate or ligand; peptides without Tyr show the background
Returns 1.0 if the recorded phosphorylation enrichment is greater than or equal to 0.5, and 0.0 otherwise.

For orientation, consider the following solved cases.
# item_sequence, category
rows = [
    ("AVVEPYNSILT [TUBA1A_Y185]", 0.0),
    ("AKFPSYEKNKK [FOXL2_Y91_F90S]", 1.0),
    ("LGGAMYFLEAD [PKHD1_Y452_E457D_YF]", 1.0),
    ("TFGVAYRAKDK [CDK11B_Y453_V452A_YF]", 0.0),
    ("RLRAAYNLVKR [PFKM_Y103]", 1.0),
]

# input Reported phosphorylation enrichment at or above 0.5? RFLRGYHQDAY [HLA-A_Y137_R138H]
# output 1.0
